Where these numbers come from: PubChem BioAssay (NCATS)

assayComment: Stat Signaling Pathway (AID 446);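 further: ME-180 cervical cancer cells given 40 pM IL-6 alongside compound; SIE-controlled beta-lactamase reporter measured as 460/530 nm FRET emission ratio; on the % scale 0 is the no-effect control and ±100 the full control effect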
measurementParameters: ME-180 (cervical carcinoma) SIE beta-lactamase reporter, IL-6 stimulated, 5 h; at 7.69 µM (top of the series) unless noted
Inconclusive results are not listed.
measurementName: activity, negative = inhibition (%)
Report as a plain number; the unit % is understood.

[in] Which activity, negative = inhibition is reported for this compound? "CN(C)C(=O)c1ccc(-c2ccc3ncnc(N4CCC(C(=O)O)CC4)c3c2)cc1"
[out] -4.54

[in] How about "Cc1ccccc1-c1cc(N(C)C)ncn1" ?
[out] 7.1

[in] How about "COc1cccc(-c2cncnc2-n2ccnc2)c1" ?
[out] -1.78

[in] How about "COc1ccccc1CNc1ccnc(-c2ccoc2)n1" ?
[out] -4.66

[in] How about "CS(=O)(=O)N1CCC2(CCN(c3ccccc3)CC2)CC1" ?
[out] -0.282

[in] How about "Cc1cnc(CNc2ccnc(-c3c(C)noc3C)n2)cn1" ?
[out] 1.5

[in] How about "COc1cccc(-c2cncnc2NC2CCNCC2)c1" ?
[out] 13.9

[in] How about "COc1ccc(CNc2ncnc3ccc(-c4cccc(NS(C)(=O)=O)c4)cc23)c(OC)c1" ?
[out] -11.9

[in] How about "COCC(=O)N1CCC2(CC1)CCN(C(=O)Nc1cccc(F)c1)CC2" ?
[out] -5.26

[in] How about "N#Cc1cccc(NC(=O)N2CCC3(CC2)CCN(C(=O)c2csnn2)CC3)c1" ?
[out] -0.506

[in] How about "CC(=O)N1CCC2(CC1)CN(c1ccncc1)C2" ?
[out] 0.403

[in] How about "COc1ccc(-n2c(=O)c(-c3cn(C)c4ccccc34)nc3cnc(OC)nc32)cc1" ?
[out] 5.87

[in] How about "COc1cccc(Cn2c(=O)c(C)nc3cnc(OC)nc32)c1" ?
[out] -2.86

[in] How about "Cn1cc(-c2nc3cnc(N4CCOCC4)nc3n(C3CC3)c2=O)c2ccccc21" ?
[out] 11.5

[in] How about "Clc1ccccc1-c1cncnc1NCc1cccs1" ?
[out] -9.78

[in] How about "O=C(c1csnn1)N1CCC2(CCCN(Cc3cc(C(F)(F)F)cc(C(F)(F)F)c3)C2)CC1" ?
[out] 3.73

[in] How about "COC(=O)N1CCC[C@@]2(CCN(C(=O)Nc3ccccc3)C2)C1" ?
[out] -0.455

[in] How about "COc1cccc(-c2nccc(NCc3cccc(C)c3)n2)c1" ?
[out] -25.6

[in] How about "O=C(c1cnccn1)N1CCC2(CCCN(c3ccccc3)C2)CC1" ?
[out] -11.6

[in] How about "Cc1ccccc1-c1cc(Nc2ccccc2)ncn1" ?
[out] 4.11

[in] How about "O=C(c1cc(C(F)(F)F)cc(C(F)(F)F)c1)N1CCC2(CCN(Cc3nccs3)CC2)CC1" ?
[out] -29.1

[in] How about "COCC(=O)N1CCC2(CC1)CN(C(c1ccccc1)c1ccccc1)C2" ?
[out] -8.6

[in] How about "Cc1nc2cnc(Oc3ccccc3)nc2n(C)c1=O" ?
[out] -10.2

[in] How about "COc1ccc(-c2nc3cnc(N4CCOCC4)nc3n(C[C@H]3CCCO3)c2=O)cc1" ?
[out] 9.41

[in] How about "O=C(c1ccco1)N1CCC2(CC1)CCN(c1ccccc1)CC2" ?
[out] -6.6

[in] How about "O=C(Oc1ccccc1)N1CCC2(CCCN(c3ccccc3)C2)CC1" ?
[out] 8.61

[in] How about "CN1CCCC2(CCN(C(=O)c3cccn3C)CC2)C1" ?
[out] 7.29

[in] How about "COc1ccccc1CN1CC[C@@]2(CCCN(C(C)=O)C2)C1" ?
[out] 1.39

[in] How about "COc1ccc(Oc2ncc3nc(-c4ccc(Cl)cc4)c(=O)n(C[C@H]4CCCO4)c3n2)cc1" ?
[out] -13.9

[in] How about "CNc1ccnc(-c2ccccc2CN(C)C)n1" ?
[out] -6.7

[in] How about "O=C(c1ccncc1)N1CCC2(CC1)CN(c1ncccn1)C2" ?
[out] -10.2

[in] How about "CS(=O)(=O)N1CCC2(CC1)CN(Cc1cc(C(F)(F)F)cc(C(F)(F)F)c1)C2" ?
[out] -3.12

[in] How about "COCC(=O)N1CCC[C@@]2(CCN(Cc3ccc(C#N)cc3)C2)C1" ?
[out] 5.14

----------
testedTarget: Glucocorticoid receptor (Homo sapiens) (UniProt P04150)
Sequence (P04150 whole entry, looked up): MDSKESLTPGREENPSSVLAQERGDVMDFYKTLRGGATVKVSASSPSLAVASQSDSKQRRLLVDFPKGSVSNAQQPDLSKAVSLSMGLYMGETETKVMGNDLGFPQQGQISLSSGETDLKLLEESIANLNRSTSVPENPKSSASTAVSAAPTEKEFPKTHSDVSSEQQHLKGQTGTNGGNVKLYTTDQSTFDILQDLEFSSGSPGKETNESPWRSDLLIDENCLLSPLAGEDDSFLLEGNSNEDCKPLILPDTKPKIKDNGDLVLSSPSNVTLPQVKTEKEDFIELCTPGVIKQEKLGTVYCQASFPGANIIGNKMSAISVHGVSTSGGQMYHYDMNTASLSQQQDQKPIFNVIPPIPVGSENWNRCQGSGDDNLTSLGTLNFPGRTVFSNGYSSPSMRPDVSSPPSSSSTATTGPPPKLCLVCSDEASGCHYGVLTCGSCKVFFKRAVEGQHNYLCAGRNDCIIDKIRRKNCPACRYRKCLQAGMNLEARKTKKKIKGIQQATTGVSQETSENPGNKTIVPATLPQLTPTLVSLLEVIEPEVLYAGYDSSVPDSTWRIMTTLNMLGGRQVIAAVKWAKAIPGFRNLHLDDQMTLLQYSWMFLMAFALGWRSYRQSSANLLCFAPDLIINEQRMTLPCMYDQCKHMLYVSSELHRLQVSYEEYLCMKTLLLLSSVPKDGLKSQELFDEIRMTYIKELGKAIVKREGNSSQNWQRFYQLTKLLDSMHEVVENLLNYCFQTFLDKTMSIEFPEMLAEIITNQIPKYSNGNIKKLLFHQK
assayComment: GR-GFP Redistribution (AID 450); further: potency means the concentration at half of the fitted maximal effect
measurementParameters: U2OS GR-GFP nuclear translocation, laser cytometry, 2 h
Activity calls are given as the source filed them.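 How the source made its calls: active means compounds whose dose series gives a full or clear partial fitted curve of increased nuclear translocation; inconclusive means weak partial curve or effect only at the top dose; inactive means no dose-dependent translocation response.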
measurementName: Potency

[in] Which Potency is reported for this molecule? "Cc1nc2cnc(N(C)C)nc2n(CCC#N)c1=O"
[out] > 9.22 µM (inactive)

[in] How about "FC(F)(F)c1ccccc1-c1nccc(N2CCNCC2)n1" ?
[out] > 46 µM (inactive)

[in] How about "CN1CCN(c2ncnc3ccc(-c4ccccc4C#N)cc23)CC1" ?
[out] > 46 µM (inactive)

[in] How about "COc1ccc(-n2c(=O)c(-c3cccs3)nc3cncnc32)cc1" ?
[out] > 9.22 µM (inactive)

[in] How about "COc1cccc(-c2ccc3ncnc(N4CCN(C)CC4)c3c2)c1" ?
[out] > 46 µM (inactive)

[in] How about "COc1ccc2[nH]cc(CCNc3cc(-c4ccccc4C(F)(F)F)ncn3)c2c1" ?
[out] > 46 µM (inactive)

[in] How about "CNc1ncncc1-c1ccccc1OC" ?
[out] > 46 µM (inactive)

----------
I'd appreciate it if you could supply activity change, negative = inhibition values for the items below.
assayComment: NFAT Signaling Pathway (AID 444);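 further: carbachol stimulus at about its EC50 of 1 µM final; on the % scale 0 is the no-effect control and ±100 the full control effect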
measurementParameters: Jurkat NFAT-bla M1, carbachol, beta-lactamase ratio, 5 h; at 7.69 µM (top of the series) unless noted
Results filed as inconclusive are left out.
Report as a plain number; the unit % is understood.

[in] Which activity change, negative = inhibition is reported for this compound? "Cc1noc(C)c1C(=O)N1CCC[C@@]2(CCN(Cc3ccccc3)C2)C1"
[out] 4.21

[in] How about "Cc1noc(C)c1-c1nccc(NCc2cccnc2)n1" ?
[out] -9.01

[in] How about "COCCn1c(=O)c(-c2cccc(C#N)c2)nc2cnc(Oc3ccccc3)nc21" ?
[out] 2.72

[in] How about "COc1cccc(Nc2ncc3nc(C)c(=O)n(CCc4ccccc4)c3n2)c1" ?
[out] 3.56

----------
assayComment: qHTS Assay for Lipid Storage Modulators (AID 1519); further: on the % scale 0 is the no-effect control and ±100 the full control effect
measurementParameters: Drosophila S3 cells, BODIPY lipid droplet/cell ratio, laser cytometry; at 57.5 µM (top of the series); cells loaded with oleic acid
Inconclusive results are not listed.
measurementName: activity change, negative = inhibition (%)
Report as a plain number; the unit % is understood.

[in] Which activity change, negative = inhibition is reported for this compound? "CN(C)c1ccc(-c2nccc(NCCN3CCOCC3)n2)cc1"
[out] -20.5

[in] How about "CN1CCN(c2ncc3ncc(=O)n(CCC#N)c3n2)CC1" ?
[out] 6.98

[in] How about "COc1ccc2[nH]cc(CCNc3cc(-c4ccccc4C(F)(F)F)ncn3)c2c1" ?
[out] 6.48

[in] How about "Cc1nc2cnc(Nc3ccccc3)nc2n(Cc2ccc(F)cc2)c1=O" ?
[out] 1.06

[in] How about "COc1ccccc1CN1CC2(CCN(C(=O)c3cnccn3)CC2)C1" ?
[out] 3

[in] How about "Cc1cccc(CNc2ncnc3ccc(-c4cccnc4)cc23)c1" ?
[out] 2.99

[in] How about "FC(F)(F)c1ccccc1-c1nc(N2CCNCC2)c2ccccc2n1" ?
[out] 7.02

[in] How about "CCNc1ncc2nc(-c3ccc(Cl)cc3)c(=O)n(CCC#N)c2n1" ?
[out] 8.4

[in] How about "c1ccc2c(-n3ccnc3)nc(-c3ccoc3)nc2c1" ?
[out] 9.53

[in] How about "CNc1ccnc(-c2ccccc2C(F)(F)F)n1" ?
[out] 4.06

[in] How about "CC(=O)N1CCC2(CC1)CN(Cc1ccccc1)C2" ?
[out] -0.469

[in] How about "COc1cccc(Cn2c(=O)c(-c3cn(C)c4ccccc34)nc3cnc(N4CCNCC4)nc32)c1" ?
[out] 5.92

[in] How about "Cc1ccccc1-c1cncnc1NCc1ccccc1" ?
[out] 5.04

[in] How about "CN1CCN(c2ncnc3ccc(-c4ccc(C(=O)N(C)C)cc4)cc23)CC1" ?
[out] 2.73

[in] How about "COCC(=O)N1CCC[C@@]2(CCN(C(=O)Nc3cccc(C#N)c3)C2)C1" ?
[out] 4.94

[in] How about "O=C(c1ccncc1)N1CCC2(CC1)CCN(C(c1ccccc1)c1ccccc1)CC2" ?
[out] 2.53

[in] How about "COc1ccc(-n2c(=O)cnc3cnc(N4CCN(C)CC4)nc32)cc1" ?
[out] 2.82

[in] How about "O=c1c(-c2ccc(F)cc2)nc2cnc(N3CCOCC3)nc2n1Cc1cccs1" ?
[out] -1.08

[in] How about "O=C(c1ccco1)N1CCC2(CC1)CN(c1ccc(-c3ccccc3)cc1)C2" ?
[out] 2.85

[in] How about "O=C(Nc1ccccc1)N1CCC2(CC1)CCN(C(=O)c1csnn1)CC2" ?
[out] 4.48

[in] How about "Cc1noc(C)c1-c1ccc2ncnc(NC3CCNCC3)c2c1" ?
[out] 2.83

[in] How about "O=C(c1ccncc1)N1CCC2(CC1)CN(C(c1ccccc1)c1ccccc1)C2" ?
[out] 4.23
